# testDescription: modulators of AGP1-GFP expression in yeast TOR pathway, primary screen, cell-based, multiplex flow cytometry, S. cerevisiae (AID 1887);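 note: AGP1-GFP fusion strain of S. cerevisiae within a five-strain barcoded multiplex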
# conditionDetails: 3 h, at 10 µM, active compounds read high
Records with an inconclusive call do not appear. Peptide text beside a SMILES is read from it. * marks the point of attachment. Boc = CC(C)(C)OC(=O)*
Overview of recorded GFP response, % of DMSO for various molecules

molecule: COc1cccc2c1C(=O)O/C2=C/c1ccc2c(c1)OCO2
GFP response, % of DMSO (%): 83.8
--
molecule: O=C(O)c1ccccc1O
GFP response, % of DMSO (%): 98.8
--
molecule: O=C(CCN1CCC(c2ccccc2)C1)c1ccc2c(c1)OCCO2 (configuration not stated)
GFP response, % of DMSO (%): 102
--
molecule: CC1=CC(C)(C)N2C(=O)C3(NCCc4c3[nH]c3ccccc43)c3cc(C)cc1c32 (configuration not stated)
GFP response, % of DMSO (%): 93.6
--
molecule: COC1=CC(=O)CC(C)C12Oc1c(Cl)c(OC)cc(OC)c1C2=O (configuration not stated)
GFP response, % of DMSO (%): 98.7
--
molecule: CC(C)(C)OC(=O)N1CCCC1C(=O)NC(Cc1ccccc1)C(=O)O (stereo not drawn) (Boc-Pro-Phe-OH; configuration not given here)
GFP response, % of DMSO (%): 102
--
molecule: O=C(CCCCC(=O)NC1CCCC1)NC1CCCC1
GFP response, % of DMSO (%): 93.7
--
molecule: CNCCCC12CCC(c3ccccc31)c1ccccc12
GFP response, % of DMSO (%): 96.7
--
molecule: Cc1nc(C)c(C)nc1C
GFP response, % of DMSO (%): 103
--
molecule: CCN(CC)Cc1c[nH]c2c(C(=O)OC)cccc12
GFP response, % of DMSO (%): 99.1
--
molecule: O=C1CCCN1CCCn1cnc2c([nH]c3ccc(F)cc32)c1=O
GFP response, % of DMSO (%): 101
--
molecule: Cc1ccccc1OCCSc1nc2ncnc(N)c2[nH]1
GFP response, % of DMSO (%): 103
--
molecule: COc1cc2c(cc1OC)C(c1cc(OC)c(OC)c(OC)c1)NCC2 (configuration not stated)
GFP response, % of DMSO (%): 102
--
molecule: COc1ccc(OC)c(-n2c(Cn3c(-c4ccccn4)nc4ccccc43)n[nH]c2=S)c1
GFP response, % of DMSO (%): 91.8
--
molecule: Cn1c2ccccc2c2cc(/C=C(\NC(=O)c3ccccc3)C(=O)O)ccc21
GFP response, % of DMSO (%): 95.7
--
molecule: CC(C)[N+](C)(CCOC(=O)C1c2ccccc2Oc2ccccc21)C(C)C
GFP response, % of DMSO (%): 101
--
molecule: CC/C(=C1/C(=O)CC(C)(C)C(C(=O)OC)C1=O)N1CCCC1 (configuration not stated)
GFP response, % of DMSO (%): 88.9
--
molecule: O=c1nc2cccc3c2=c(/c1=C(\O)c1ccccc1)c1ccccc1c3=O
GFP response, % of DMSO (%): 99.3
--
molecule: O=C(c1ccc(F)cc1)[C@@H]1[C@@H](C(=O)c2ccccc2)[C@@]2(C(=O)Nc3ccccc32)[C@H]2c3ccccc3C=CN12
GFP response, % of DMSO (%): 102
--
molecule: CC(=O)O[C@H]1C(=O)[C@@]2(C)[C@H]([C@H](OC(=O)c3ccccc3)[C@]3(O)C[C@H](OC(=O)[C@H](O)C(NC(=O)c4ccccc4)c4ccccc4)C(C)=C1C3(C)C)[C@]1(OC(C)=O)CO[C@@H]1C[C@@H]2O (some centres not stated)
GFP response, % of DMSO (%): 97.3
--
molecule: CN(C)CCOc1ccc(Cl)cc1C(C)(C)C
GFP response, % of DMSO (%): 109
--
molecule: C/C=C/Cn1c(SC)nc2c1c(=O)[nH]c(=O)n2C
GFP response, % of DMSO (%): 93.4

###

# testDescription: modulators of MEP2-GFP levels in yeast, confirmation, S. cerevisiae, flow cytometry GFP, cherry picks (AID 2272);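 note: ratio of well signal to plate DMSO mean so 100% equals DMSO level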
# conditionDetails: S. cerevisiae MEP2-GFP strain, 3 h, at 10 µM, active compounds read high
Overview of recorded GFP response vs DMSO for various molecules
measurementType: GFP response vs DMSO (%)

molecule: CCCc1[nH]nc2c1C(c1cccc(OC)c1)C(C#N)=C(N)O2 (stereo unspecified)
observedValue: 105

molecule: Cc1cc(NC(=O)c2ccc3c(c2)OCCO3)ccc1NC(=O)c1cc2ccccc2o1
observedValue: 103

molecule: O=C(Nc1nc(-c2ccccc2)cs1)c1ccc(Br)o1
observedValue: 99

molecule: CCOC(=O)/C(=C\c1cn(C)c2ccccc12)[N+](=O)[O-]
observedValue: 111

molecule: O=C(N/N=C/c1cccc(Oc2ccccc2)c1)c1ccncc1
observedValue: 103

molecule: O=C(NN1C(=O)/C(=C\c2ccc(O)c([N+](=O)[O-])c2)SC1=S)c1ccccc1Cl
observedValue: 123

molecule: C=CCn1c(=O)c(C(=O)NCCc2ccccc2)c(O)c2ccccc21
observedValue: 96.2

molecule: Nc1ccc(S(=O)(=O)c2ccccc2)nc1
observedValue: 104

molecule: CN1CCN(C(c2ccc(C(F)(F)F)cc2)c2ccc3cccnc3c2O)CC1 (stereo unspecified)
observedValue: 109

molecule: COc1cc(NC(=O)c2ccc(Br)cc2)ccc1NC(=O)c1cc2ccccc2o1
observedValue: 100

molecule: O=C(O)c1ccc(/C=N/NC(=O)c2ccc(Br)cc2)cc1
observedValue: 101

###

Overview of recorded superoxide response (% of plate) for various compounds
# testDescription: superoxide lowering in aged yeast cells, pilot screen, validation compound set (AID 2706);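 note: yeast exposed to compound for one week at 30 degrees C before staining; 100% = mean of all compound wells on the same plate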
# conditionDetails: S. cerevisiae aging, superoxide DHE fluorescence; at 10 µM, active compounds read low

compound: COc1ccc(-c2c(NC(=O)c3ccco3)n(C)c3ccccc3c2=O)cc1
unitSymbol: %
superoxide response (% of plate): 102
//
compound: CCOC(=O)c1ccc2[nH]c(C)c(CCC(C)=O)c(=O)c2c1
unitSymbol: %
superoxide response (% of plate): 91.5
//
compound: Cc1ncc([N+](=O)[O-])n1CCO
unitSymbol: %
superoxide response (% of plate): 98.8
//
compound: CCCC1O[C@@H]2C[C@H]3[C@@H]4CCC5=CC(=O)C=C[C@]5(C)[C@H]4[C@@H](O)C[C@]3(C)[C@]2(C(=O)CO)O1 (stereo partly specified)
unitSymbol: %
superoxide response (% of plate): 103
//
compound: CC[n+]1c(C)sc2cc(C)ccc21
unitSymbol: %
superoxide response (% of plate): 106
//
compound: COc1cc2nc(N3CCN(C(=O)C4COc5ccccc5O4)CC3)nc(N)c2cc1OC (stereo unspecified)
unitSymbol: %
superoxide response (% of plate): 57.2

###

# testDescription: yeast V-ATPase proton transport modulators, S. cerevisiae, pHLuorin, HTS validation (AID 504600);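 note: plate controls were DMSO for no effect and reference compound for full effect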
# conditionDetails: S. cerevisiae pHLuorin cytosolic pH, at 10 µM, active compounds read high
Overview of recorded response for various compounds
measurementType: response (%)

compound: C/C=C/Cn1c(SC)nc2c1c(=O)[nH]c(=O)n2C
observedValue: 1.09
--
compound: O=C(OCC1OC2OC3(CCCCC3)OC2C2OC3(CCCCC3)OC12)c1ccccc1 (stereo not drawn)
observedValue: 1.42
--
compound: O=C(c1ccc(-c2ccccc2)c(F)c1)C1CCCN(C(=O)c2cncs2)C1 (stereo not drawn)
observedValue: 13.7
--
compound: NC(N)=NC(=O)c1nc(Cl)c(N)nc1N
observedValue: -1.82
--
compound: O=[N+]([O-])c1cc(/C=N/n2cnnc2)ccc1N1CCCC1
observedValue: -0.97
--
compound: COc1cccc(N2CC34C=CC(O3)C(C(=O)O)C4C2=O)c1 (stereo not drawn)
observedValue: -2.62
--
compound: Cc1oc2c(CN3CCCC3)c(O)ccc2c(=O)c1-c1ccc(Cl)cc1
observedValue: -0.55
--
compound: CC(=O)N(CCC1(C(C)C)CCOC(C)(C)C1)Cc1ccco1 (stereo not drawn)
observedValue: -0.44
--
compound: CC(=O)NC1C(OCCOc2ccc(Cl)cc2Cl)OC(COC(C)=O)C(OC(C)=O)C1OC(C)=O (stereo not drawn)
observedValue: -6.83
--
compound: CC(NC(=O)c1ccc(OC2CCN(Cc3ccccn3)CC2)cc1)c1ccccc1 (stereo not drawn)
observedValue: -10.2
--
compound: C=C(C)COc1ccc(-c2nc(N)ncc2-c2ccc(OC)cc2)c(O)c1
observedValue: 1.42
--
compound: Cn1c2c(c(=O)[nH]c1=O)C(c1ccc(O)cc1)C1=C(N2)c2ccccc2C1=O (stereo not drawn)
observedValue: -0.45
--
compound: OCCN1CCN(CCCN2c3ccccc3Sc3ccc(Cl)cc32)CC1
observedValue: 5.46
--
compound: O=C(c1cc2cc(Br)ccc2o1)N1CCCCC1
observedValue: -0.39
--
compound: CC/C(=C1/C(=O)CC(C)(C)C(C(=O)OC)C1=O)N1CCCC1 (stereo not drawn)
observedValue: 3.5
--
compound: C=C(C)COc1ccc(-c2n[nH]c(C)c2-c2ccc(OC)cc2)c(O)c1
observedValue: -1.12
--
compound: COc1cc(/C=C/C(=O)N2CCCC2)cc(OC)c1OC
observedValue: 0.86
--
compound: Cc1[nH]c2ccccc2c1C(=O)CN1CCCC1
observedValue: -0.48
--
compound: Cc1cc(OC(C(=O)O)c2ccccc2)c2c(C)c(Cc3ccccc3)c(=O)oc2c1 (stereo not drawn)
observedValue: 5.52
--
compound: Nc1nc2c(ncn2COC(CO)CO)c(=O)[nH]1
observedValue: -2.35
--
compound: O=C(c1ccc(O)cc1)c1ccc(O)cc1O
observedValue: -7.71
--
compound: Cc1cccc(N(C)C(=S)Oc2ccc3ccccc3c2)c1
observedValue: 4.82
--
compound: COc1ccc(-c2onc(C)c2-c2ccc(C(=O)OC(C)C)o2)c(O)c1
observedValue: -0.7

Hey, just so you know, these numbers are from PubChem BioAssay.
